test system: ABL1-phosphorylated; conditions: Compound Concentration (nM):1000;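 also: KINOMEscan scanMAX binding as percent activity remaining versus control; lower means stronger binding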
Entries annotated with measured Percent Control
Answer with a number only, understood to be in %.

# count of solved cases: 6
{"columns": ["Molecule", "Percent Control, %"],
 "data": [
  ["O=C1Nc2ccc(C(=O)c3ccco3)cc2C1=Cc1cc(Cl)c(O)c(Cl)c1 [GW406108X]", 76],
  ["NS(=O)(=O)c1ccc(N/N=C2\\C(=O)Nc3ccc(C(=O)NCCc4c[nH]cn4)cc32)cc1 [GW300660X]", 91],
  ["CCS(=O)(=O)c1ccc(OC)c(Nc2ncc(-c3cccc(OC)c3)o2)c1 [GW580509X]", 9.4],
  ["COC(=O)Nc1nc2ccc(Oc3ccc(NC(=O)Nc4cc(C(F)(F)F)ccc4F)cc3)cc2s1.Cl [GW693917A]", 13],
  ["CC1=C(C(=O)Nc2ccc3[nH]ncc3c2)C(c2ccc(Cl)c(Cl)c2)CC(=O)N1 (centres unmarked) [GSK299115A]", 94],
  ["CN(C)c1cc2c(Nc3ccc4c(cnn4Cc4ccccc4)c3)ncnc2cn1 [GW282974X]", 54]
]}

Below: the item to evaluate.
-- ask Give Percent Control only, for COc1cc(C=NNc2ncnc3c2cnn3-c2ccccc2)ccc1O [GW513184X] , using ABL1-phosphorylated data.
-- reply 23
